Test system: 192522-019-R-J2-PDC complex tumor spheroid viability
assay_text: Anticancer human tumor 192522-019-R-J2-PDC patient-derived colon adenocarcinoma cell line growth inhibition [POLQ]
assay_conditions: second compound 0.0316 µM; first compound 0.316 µM; stronger effect = lower value
We label by threshold. Values of viability, T/C strictly beneath 90% are condition met. Values of 90% and up are condition not met.

INSERT INTO results (compound, group_label) VALUES
  ('COc1cccc2c1C(=O)c1c(O)c3c(c(O)c1C2=O)CC(O)(C(=O)CO)CC3OC1CC(N)C(O)C(C)O1 (stereo not given) + Nc1ccc(C#CCN(C(=O)Cc2ncc(C(F)(F)F)cc2C(F)(F)F)c2ccc(F)cc2)nn1', 'condition met'),
  ('CCc1c2c(nc3ccc(O)cc13)-c1cc3c(c(=O)n1C2)COC(=O)[C@]3(O)CC + COC1C(OC(N)=O)C(O)C(Oc2ccc3c(O)c(NC(=O)c4ccc(O)c(CC=C(C)C)c4)c(=O)oc3c2C)OC1(C)C', 'condition met'),
  ('COc1cc2cc(C(=O)CCC(=O)O)sc2cc1OC + Nc1ccc(C#CCN(C(=O)Cc2ncc(C(F)(F)F)cc2C(F)(F)F)c2ccc(F)cc2)nn1', 'condition not met'),
  ('CCc1cc2c(N3CCc4c(cc(Cn5ccnc5)cc4-c4cn(C)nc4C(F)(F)F)C3=O)ccnc2c(OC)n1 + Cc1cccc(N(C)C(=O)C2C(O)CCN2c2nc(C)cc(C(F)(F)F)c2C#N)c1', 'condition not met'),
  ('CCc1cc2c(N3CCc4c(cc(Cn5ccnc5)cc4-c4cn(C)nc4C(F)(F)F)C3=O)ccnc2c(OC)n1 + COC1C(OC(N)=O)C(O)C(Oc2ccc3c(O)c(NC(=O)c4ccc(O)c(CC=C(C)C)c4)c(=O)oc3c2C)OC1(C)C', 'condition met');

----------
Test system: 192522-019-R-J2-PDC complex tumor spheroid viability
assay_text: Anticancer human tumor 192522-019-R-J2-PDC cell line growth inhibition [POLQ]
assay_conditions: second compound 0.0316 µM; first compound 0.1 µM; stronger effect = lower value
Description: Multicellular complex tumor spheroid response to Polymerase (POL) inhibitors (novobiocin, ART-558, RP6685) in combination with a variety of drugs and investigational agents in selected tumor cell lines The POL inhibitors (novobiocin, ART-558, and RP6685) were evaluated both individually and in combination with standard of care and investigational anticancer small molecules within a complex spheroid model of solid tumors. . […]
assay_readout: viability, T/C

INSERT INTO assay_data (compound, recorded_result) VALUES
  ('CCc1cc2c(N3CCc4c(cc(Cn5ccnc5)cc4-c4cn(C)nc4C(F)(F)F)C3=O)ccnc2c(OC)n1 + COC1C(OC(N)=O)C(O)C(Oc2ccc3c(O)c(NC(=O)c4ccc(O)c(CC=C(C)C)c4)c(=O)oc3c2C)OC1(C)C', '89.9%'),
  ('O=c1[nH]cc(F)c(=O)[nH]1 + Cc1cccc(N(C)C(=O)C2C(O)CCN2c2nc(C)cc(C(F)(F)F)c2C#N)c1', '88.5%'),
  ('COc1cc(C2c3cc4c(cc3C(OC3OC5COC(C)OC5C(O)C3O)C3COC(=O)C23)OCO4)cc(OC)c1O (stereo not drawn) + Cc1cccc(N(C)C(=O)C2C(O)CCN2c2nc(C)cc(C(F)(F)F)c2C#N)c1', '91.4%');

----------
System: 192522-019-R-J2-PDC complex tumor spheroid viability
assay_text: Anticancer human tumor 192522-019-R-J2-PDC cell line growth inhibition [POLQ];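 further: spheroids exposed to drugs for seven days before reading; 100% = DMSO vehicle control viability in luminescence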
assay_conditions: second compound 0.0316 µM; first compound 0.001 µM; stronger effect = lower value
assay_readout: viability, T/C (%)

INSERT INTO assay_data (compound, recorded_result) VALUES
  ('CC[C@@]1(O)C(=O)OCc2c1cc1n(c2=O)Cc2cc3c(CN(C)C)c(O)ccc3nc2-1 + Nc1ccc(C#CCN(C(=O)Cc2ncc(C(F)(F)F)cc2C(F)(F)F)c2ccc(F)cc2)nn1', 103),
  ('CC[C@@]1(O)C(=O)OCc2c1cc1n(c2=O)Cc2cc3c(CN(C)C)c(O)ccc3nc2-1 + COC1C(OC(N)=O)C(O)C(Oc2ccc3c(O)c(NC(=O)c4ccc(O)c(CC=C(C)C)c4)c(=O)oc3c2C)OC1(C)C', 95.6),
  ('Cn1ncnc1[C@H]1c2n[nH]c(=O)c3cc(F)cc(c23)N[C@@H]1c1ccc(F)cc1 + Cc1cccc(N(C)C(=O)C2C(O)CCN2c2nc(C)cc(C(F)(F)F)c2C#N)c1', 96.1);

----------
Each item that follows carries a reported viability, T/C.
Test system: 192522-019-R-J2-PDC complex tumor spheroid viability
assay_text: Anticancer human tumor 192522-019-R-J2-PDC cell line growth inhibition [POLQ];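 further: spheroids exposed to drugs for seven days before reading; 100% = DMSO vehicle control viability in luminescence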
assay_conditions: second compound 10 µM; first compound 1 µM; stronger effect = lower value
assay_readout: viability, T/C (%)

INSERT INTO assay_data (compound, recorded_result) VALUES
  ('COc1cc(C2c3cc4c(cc3C(OC3OC5COC(C)OC5C(O)C3O)C3COC(=O)C23)OCO4)cc(OC)c1O (stereo not given) + Nc1ccc(C#CCN(C(=O)Cc2ncc(C(F)(F)F)cc2C(F)(F)F)c2ccc(F)cc2)nn1', 78.6),
  ('C#Cc1c(F)ccc2cc(O)cc(-c3ncc4c(N5CC6CCC(C5)N6)nc(OCC56CCCN5CC(F)C6)nc4c3F)c12 (stereo not given) + Cc1cccc(N(C)C(=O)C2C(O)CCN2c2nc(C)cc(C(F)(F)F)c2C#N)c1', 78.2),
  ('O=C(c1cc(Cc2n[nH]c(=O)c3ccccc23)ccc1F)N1CCN(C(=O)C2CC2)CC1 + COC1C(OC(N)=O)C(O)C(Oc2ccc3c(O)c(NC(=O)c4ccc(O)c(CC=C(C)C)c4)c(=O)oc3c2C)OC1(C)C', 109),
  ('O=C(c1cc(Cc2n[nH]c(=O)c3ccccc23)ccc1F)N1CCN(C(=O)C2CC2)CC1 + Cc1cccc(N(C)C(=O)C2C(O)CCN2c2nc(C)cc(C(F)(F)F)c2C#N)c1', 93.7),
  ('C=CC(=O)N1CCN(c2nc(=O)n(-c3c(C)ccnc3C(C)C)c3nc(-c4c(O)cccc4F)c(F)cc23)C(C)C1 (stereo not given) + COC1C(OC(N)=O)C(O)C(Oc2ccc3c(O)c(NC(=O)c4ccc(O)c(CC=C(C)C)c4)c(=O)oc3c2C)OC1(C)C', 96.8);

----------
Tested on: 192522-019-R-J2-PDC complex tumor spheroid viability
assay_text: Anticancer human tumor 192522-019-R-J2-PDC cell line growth inhibition [POLQ];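 further: spheroids exposed to drugs for seven days before reading; 100% = DMSO vehicle control viability in luminescence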
assay_conditions: second compound 0.0316 µM; first compound 0.316 µM; stronger effect = lower value
assay_readout: viability, T/C (%)

INSERT INTO measurements (molecule, output_unit, recorded_result) VALUES
  ('CC(C)n1c(=O)n(C)c2cnc3cc(F)c(-c4ccc(OCCCN5CCCCC5)nc4)cc3c21 + Cc1cccc(N(C)C(=O)C2C(O)CCN2c2nc(C)cc(C(F)(F)F)c2C#N)c1', '%', 102),
  ('CCc1c2c(nc3ccc(O)cc13)-c1cc3c(c(=O)n1C2)COC(=O)[C@]3(O)CC + Nc1ccc(C#CCN(C(=O)Cc2ncc(C(F)(F)F)cc2C(F)(F)F)c2ccc(F)cc2)nn1', '%', 44.2),
  ('COc1cc2cc(C(=O)CCC(=O)O)sc2cc1OC + Cc1cccc(N(C)C(=O)C2C(O)CCN2c2nc(C)cc(C(F)(F)F)c2C#N)c1', '%', 94.9),
  ('COc1cc2cc(C(=O)CCC(=O)O)sc2cc1OC + COC1C(OC(N)=O)C(O)C(Oc2ccc3c(O)c(NC(=O)c4ccc(O)c(CC=C(C)C)c4)c(=O)oc3c2C)OC1(C)C', '%', 97.7),
  ('COc1cccc(OCCCN)c1-c1cc(Nc2cnc(C#N)cn2)n[nH]1 + Cc1cccc(N(C)C(=O)C2C(O)CCN2c2nc(C)cc(C(F)(F)F)c2C#N)c1', '%', 39.8),
  ('CC1COCCN1c1cc(C2(S(C)(=N)=O)CC2)nc(-c2ccnc3[nH]ccc23)n1 (stereo unspecified) + Nc1ccc(C#CCN(C(=O)Cc2ncc(C(F)(F)F)cc2C(F)(F)F)c2ccc(F)cc2)nn1', '%', 102);

----------
Test system: 192522-019-R-J2-PDC complex tumor spheroid viability
assay_text: Anticancer human tumor 192522-019-R-J2-PDC cell line growth inhibition [POLQ];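 further: spheroids exposed to drugs for seven days before reading; 100% = DMSO vehicle control viability in luminescence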
assay_conditions: second compound 0.0316 µM; first compound 0.1 µM; stronger effect = lower value
assay_readout: viability, T/C (%)

INSERT INTO measurements (molecule, output_unit, recorded_result) VALUES
  ('CCc1cc2c(N3CCc4c(cc(Cn5ccnc5)cc4-c4cn(C)nc4C(F)(F)F)C3=O)cc(C)nc2c(OC)n1 + Nc1ccc(C#CCN(C(=O)Cc2ncc(C(F)(F)F)cc2C(F)(F)F)c2ccc(F)cc2)nn1', '%', 99.6),
  ('CC[C@@]1(O)C(=O)OCc2c1cc1n(c2=O)Cc2cc3c(CN(C)C)c(O)ccc3nc2-1 + Cc1cccc(N(C)C(=O)C2C(O)CCN2c2nc(C)cc(C(F)(F)F)c2C#N)c1', '%', 62.4),
  ('Nc1ccn(C2OC(CO)C(O)C2(F)F)c(=O)n1 (stereo not given) + Nc1ccc(C#CCN(C(=O)Cc2ncc(C(F)(F)F)cc2C(F)(F)F)c2ccc(F)cc2)nn1', '%', 96.1),
  ('CNCc1ccc(-c2[nH]c3cc(F)cc4c3c2CCNC4=O)cc1 + Nc1ccc(C#CCN(C(=O)Cc2ncc(C(F)(F)F)cc2C(F)(F)F)c2ccc(F)cc2)nn1', '%', 106),
  ('O=C(c1cc(Cc2n[nH]c(=O)c3ccccc23)ccc1F)N1CCN(C(=O)C2CC2)CC1 + Nc1ccc(C#CCN(C(=O)Cc2ncc(C(F)(F)F)cc2C(F)(F)F)c2ccc(F)cc2)nn1', '%', 116);
